- STUDY_SYSTEM: PIM1 serine/threonine kinase (Homo sapiens, UniProt P11309)
- Sequence (P11309 whole entry): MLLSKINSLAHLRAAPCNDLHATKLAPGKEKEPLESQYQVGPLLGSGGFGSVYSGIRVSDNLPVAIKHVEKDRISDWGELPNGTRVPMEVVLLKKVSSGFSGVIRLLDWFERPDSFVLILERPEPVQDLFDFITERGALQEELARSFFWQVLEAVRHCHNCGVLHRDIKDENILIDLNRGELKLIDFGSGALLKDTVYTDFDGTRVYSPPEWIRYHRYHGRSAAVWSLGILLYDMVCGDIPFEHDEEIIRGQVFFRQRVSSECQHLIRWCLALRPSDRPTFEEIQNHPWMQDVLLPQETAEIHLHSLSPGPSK
- ASSAY: PIM1 serine/threonine kinase inhibitory effect
- RECORDED_CONDITIONS: PIM1 serine/threonine kinase activity; ATP 40 μM; 30° C., 30 minutes
Where a name gives a salt, the structure may show the parent alone.
MEASURED_PARAMETER: IC50 (nM)

Solved cases (2 shown):
| COMPOUND | ENDPOINT_RESULT |
| --- | --- |
| O=c1[nH]nc(-c2ccc(Cl)c(NCC3CCNCC3)c2)o1 [Example 47, hydrochloride] | 7.6 |
| NCc1cccc(-c2cc(-c3n[nH]c(=O)o3)ccc2Cl)c1 [Example 18, hydrochloride] | 64 |

1. CN[C@H]1C[C@@H]([C@H](C)Nc2cc(-c3n[nH]c(=O)o3)cc(F)c2C(F)(F)F)C1 [Example 203, hydrochloride]
2. C[C@H](Nc1cc(-c2n[nH]c(=O)o2)cc(C(F)(F)F)c1Cl)C1CCNCC1 [Example 101, dihydrochloride]
q: Identify the item whose IC50 is the smaller number: 1 or 2 Response format: the label of the selected entry.
a: 2
